# Test system: SK-MEL-5 melanoma
# ASSAY_OVERVIEW: NCI-60 one-dose screen, 48 h (100 = growth as untreated, 0 = no growth, -100 = all killed)
# EXPERIMENTAL_CONDITIONS: 10 µM unless noted
This is part of a sample that, as a whole, favours compounds with a hit. Of some 83,000 tested, about 20% had one in any assay.
Would you please tag the item label 1 when its growth is 50% or above, and label 0 when it is below?

COc1cc(C(=O)N2N=C(c3ccc(S(C)(=O)=O)cc3)CC2c2ccco2)cc(OC)c1OC (stereo unspecified)    label 0
CCOC(=O)c1cn2ncnc(Oc3ccc(NC(=O)NCCN(CC)CC)c(Cl)c3)c2c1C    label 0
C=C(C)C1CCC2(C)OC2C1 (stereo unspecified)    label 1
Cc1nc2ccccc2n1-c1ncnc2c1CC(C)c1ccccc1N2C (stereo unspecified)    label 1
CNc1nc2c(s1)C(c1cccc(F)c1)CC(=O)N2 (stereo unspecified)    label 1
C[N+]1=C(/C=C/c2ccc(O)c3ncccc23)C(C)(C)c2ccccc21    label 0
CC(C)OC(=O)Nc1ccc(-c2nc(-c3cccc(OCCN4CCOCC4)c3)c(-c3ccnc(Br)c3)[nH]2)cc1    label 0
c1ccc(-c2nc3sc(-c4ccccc4)cn3n2)cc1    label 1

Could you tell me if the measured growth of Cc1ccc(-c2nc(N3CCN(C(=O)c4ccc(OC(F)(F)F)cc4)CC3)c3ccccc3n2)cc1 reaches 50% or more?
label 1

Check if growth >= 50% (inclusive). Item: O=C1CCC(C(=O)NCCNCCNC(=O)C2CCC(=O)N2)N1 (stereo unspecified)
label 1

In plain terms: is recorded growth at least 50% for O=C(COc1ccc(/C=C2\Cc3ccc(Cl)cc3C2=O)cc1)Nc1nc2ccccc2s1 ?
label 1

Item CC(C)(C)NC(=O)C(OC(=O)c1cccc(Cl)c1)c1ccc(Cl)cc1 (stereo unspecified) with growth of 50% or above?
label 1

Is the recorded value of growth equal to or greater than 50% for this molecule? CCOC(=O)C1=C(N)Oc2c(sc3c(C)cccc23)C1c1ccc(F)cc1 (stereo unspecified)
label 0

Is the recorded value of growth equal to or greater than 50% for this molecule? CCCCCCN1C(=O)/C(=c2\sc3n(c2=O)C2C(NN=3)N(CC)C(=O)N2CC)c2ccccc21 (stereo unspecified)
label 0

----------
# System: UACC-257 melanoma
# ASSAY_OVERVIEW: NCI-60 one-dose screen, 48 h (100 = growth as untreated, 0 = no growth, -100 = all killed)
# EXPERIMENTAL_CONDITIONS: 10 µM unless noted
About 83,000 compounds went through this panel and 20% of them were active in at least one assay; those are over-represented in the sample as a whole.
Short version: growth at least 60% is 1, less is -1.

Nc1nc(-c2cccc3ccccc23)cc2ccccc12    -1
COc1ccc(/C=C/c2c(C(=O)/C=C/c3ccc(Cl)cc3)c(C)nc3ccccc23)cc1    -1
COc1ccc(OC)c(/C=C/C(=O)N/N=C/c2ccc(Cl)cc2)c1    -1
COc1cc2oc(-c3ccc(O)cc3)cc(=O)c2c(O)c1-c1c(OC)cc(O)c2c(=O)cc(-c3ccc(O)cc3)oc12    1

Here is another compound to look at.
hey, is growth for this one >= 60%? NS(=O)(=O)c1ccc(-n2nc(-c3ccc(Cl)cc3)c3ccccc3c2=O)cc1
1

----------
# System: HCT-15 colon
# ASSAY_OVERVIEW: NCI-60 one-dose screen, 48 h
# EXPERIMENTAL_CONDITIONS: 10 µM unless noted
About 83,000 compounds went through this panel and 20% of them were active in at least one assay; those are over-represented in the sample as a whole. The source made the active and inactive calls. How the source made its calls: active means growth percent below 10; inactive means the rest.
I would appreciate it if you answered using one of these outcomes: active, inactive

Please review the following examples before continuing.
COc1cc(/C=C/c2c(C(C)=O)c(C)nc3ccccc23)cc(OC)c1OC    inactive
COc1ccc(-c2nc3sc(-c4ccc(Cl)cc4)cn3n2)cc1    inactive
O=C(Nc1ccc(F)cc1F)c1cc(F)ccc1O    inactive
O=C(O)CCC/C=C\C[C@H]1C=CC(=O)/C1=C/C[C@@H](O)CCc1cccc(C(F)(F)F)c1    active
CN1C(=O)N(C)C2Nn3c(s/c(=C\c4ccccc4)c3=O)=NC21 (configuration not stated)    inactive

Next compound, please.
For N#CC1=C(N)Oc2c(sc3c(Br)cccc23)C1c1ccc(Br)cc1 (configuration not stated) , which call appears in the assay record?
inactive

----------
# System: UACC-257 melanoma
# ASSAY_OVERVIEW: NCI-60 one-dose screen, 48 h
# EXPERIMENTAL_CONDITIONS: 10 µM unless noted
Compounds without any hit were thinned out: in the full panel of roughly 83,000, 20% have a hit. Activity calls are given as the source filed them. How the source made its calls: active means growth percent below 10; inactive means the rest.
Choose one outcome from this list and give only that: t for active, f for inactive

COc1cc(C(=O)/C=C/c2c(Cl)nc3sccn23)cc(OC)c1OC    f
COc1ccc(C(=O)C[C@]2(O)C(=O)Nc3c(Cl)ccc(Cl)c32)cc1    f
Cc1nc(/N=C(\N)NC(=O)Nc2cccc(Cl)c2)sc1C    f
CCc1ccc2nc(NC(=O)Cc3csc(NC(=O)c4ccco4)n3)sc2c1    f
CCCCCCNC(=O)Oc1ccc(/C(=C(\C)c2ccc(OC)cc2)c2ccc(OCCN3CCCCC3)cc2)cc1    t
CN1C(=O)N(C)C2Nn3c(s/c(=C\c4ccccc4)c3=O)=NC21 (stereo not given)    f

Could you please tell me the result logged for NCCCNc1nc2ccccc2c2c(=O)c3cc(C(F)(F)F)ccc3sc12 in this assay?
f

Check the results log: what was the call for O=c1c2cccc(F)c2sc2c(NCCCNCCO)nc3ccccc3c12 ?
f

# outcome recorded in this test, key = COc1cccc(-c2nc(-c3ccc(NC(=O)C(C)C)cc3)[nH]c2-c2ccnc(Br)c2)c1
f

Answer briefly: the call reported for COc1ccc2c(c1)c(-c1nn3cc(-c4cccs4)nc3s1)cn2C in this assay.
f

Dear colleague, could you share the recorded outcome for CNc1nc2c(s1)C(c1cccc(F)c1)CC(=O)N2 (stereo not given) when you have a moment?
f

Field: outcome | Entry: CCn1cnc2c1c(=O)[nH]c(=O)n2CC1CCC(CNS(=O)(=O)c2ccc(OC3CCOCC3)c(F)c2)CC1 (stereo not given)
f

Kindly provide the recorded test outcome for the following compound: CCOC(=O)Nc1ccc(-c2nc(-c3cccc(OCCN4CCOCC4)c3)c(-c3ccnc(Br)c3)[nH]2)cc1
f

How did this test come out for [O-][n+]1c2ccccc2[n+]([O-])c2c3ccccc3[nH]c21 ?
t

Dear all, I need the recorded test outcome for CSc1ncccc1C(=O)OCC(=O)Nc1oc(C)c2c(C)n[nH]c(=O)c12 , thank you.
f

Returns: the outcome recorded for O=C(/C=C/c1ccc([N+](=O)[O-])o1)NNC(=O)c1cc2ccccc2cc1O in this assay.
t

Which result was noted for this compound in the test: COc1nc2ccc(C)cc2cc1-c1nc2c(cnn2-c2ccccc2)c(=O)[nH]1
f

Record request — test call for O=C(Nc1ccc(F)cc1F)c1cc(F)ccc1O
t

----------
# System: SNB-19 CNS
# ASSAY_OVERVIEW: NCI-60 one-dose screen, 48 h
# EXPERIMENTAL_CONDITIONS: 10 µM unless noted
This is part of a sample that, as a whole, favours compounds with a hit. Of some 83,000 tested, about 20% had one in any assay. Calls of active or inactive are those of the source. How the source made its calls: active means growth percent below 10; inactive means the rest.
Field 'call' accepts active, inactive

See these solved cases before continuing.
O=S(=O)(NCCCNc1cc(-c2c(-c3cccc(O)c3)nc3sccn23)ccn1)c1cccc2ccccc12    inactive
CC1=C(C)C(=O)C(Nc2cccc(C(=O)OC(C)(C)C)c2)=C(Br)C1=O    inactive
CCOC(=O)CCN(C(=O)Nc1ccccc1)C1CCCCC1    inactive
CC(=O)OC[C@H]1OC(Sc2sc(C(=O)c3ccc(C)cc3)c(N)c2-c2nc3ccccc3s2)[C@H](OC(C)=O)[C@@H](OC(C)=O)[C@@H]1OC(C)=O (stereo partly drawn)    inactive
O=C1CCC/C=C\C[C@H]2C=CC(=O)/C2=C/C[C@H](CCc2cccc(C(F)(F)F)c2)O1    active

Just curious, what result did O=C(O)c1cn(C2CC2)c2cc(N3CCN(C(=O)Nc4nc(-c5ccc(Cl)cc5)cs4)CC3)c(F)cc2c1=O get here?
inactive

What call does the record list for CCOC(=O)c1cn2ncnc(Oc3ccc(NC(=O)NCCN(CC)CC)c(Cl)c3)c2c1C ?
inactive

# fetch the recorded call for COc1ccc(-c2[nH]ncc2-c2cc3c(c(OC)c2)OCC(=O)N3)cc1 here
inactive

For COc1cccc(OC)c1C(=O)N[C@@H]1C(=O)N2[C@@H]1SC(C)(C)[C@@H]2C(=O)O , what call appears in the results of this test?
inactive

Test call for this compound, please: COc1cc2cc(Oc3ccc(NC(=O)Nc4cc(C(F)(F)F)cc(C(F)(F)F)c4)cc3)c(C)nc2cc1OCCN1CCOCC1
inactive

For NS(=O)(=O)c1ccc(N=Nc2ccc(-c3nn4cc(-c5ccccc5)nc4s3)cc2)cc1 , what call appears in the results of this test?
inactive

GET /call?item= C=C1C(=O)O[C@H]2[C@H]1CC/C(COC(=O)CSCC(=O)OC/C1=C/CC[C@@]3(C)O[C@H]3[C@H]3OC(=O)C(=C)[C@@H]3CC1)=C\CC[C@@]1(C)O[C@@H]21 returns the recorded outcome of this test.
inactive

Given CNC(=O)c1[nH]cc(-c2ccccc2)c1-c1cc(OC)c2c(c1OC)OCO2 , state the outcome it received in this test.
inactive

For this compound, state the assay outcome: Cc1cc(Cl)ccc1NS(=O)(=O)c1ccc(-c2cnc(C3CC3)o2)cc1
inactive

Please state the recorded outcome for this compound: COc1ccc(-c2nc3sc(-c4ccccc4)cn3n2)cc1
inactive

What was the test verdict on NC(=O)Nc1ccc2ncnc(Nc3ccc(Cl)cc3)c2c1 ?
inactive

What outcome does the record of this test show for CCCCCCNC(=O)Oc1ccc(/C(=C(\C)c2ccc(OC)cc2)c2ccc(OCCN3CCCCC3)cc2)cc1 ?
inactive

Hey, what did the test say about CSc1ccc2c(c1)c(CCN)c(C)n2Cc1ccc(Cl)c(Cl)c1 ?
active
